assay: Cmax in Beagle dog at 20 mg/kg, po measured for 24 hrs by LC-MS/MS analysis; type: ADME, organism-based, Canis lupus familiaris; parameters: dose 20 mg/kg, route oral; conditions: in vivo
readout: Cmax (ng/mL)
Write it as a number; the unit ng/mL goes unstated.

[in] What measured Cmax goes with COCc1nnc(N2C[C@@H]3C[C@]3(c3ccc(F)cc3Cl)C2)n1-c1ccc(OC)nc1 ?
[out] 13500

----------
experiment: Clearance in nude mouse at 1 mg/kg, iv measured for 24 hrs by LC-MS/MS analysis; type: ADME, organism-based; settings: in vivo
readout: clearance (mL/min/kg)
Write it as a number; the unit mL/min/kg goes unstated.

[in] What measured clearance goes with COCc1nnc(N2C[C@@H]3C[C@]3(c3ccc(F)cc3Cl)C2)n1-c1ccc(OC)nc1 ?
[out] 31.3
